Reference source for all entries: PubChem BioAssay AID588780

system: H9c2 cardiomyocytes, 2-deoxyglucose stress, ATP luminescence, 2 h; assay: H9c2 cell survival under 2-deoxyglucose stress – uHTS hits, dose response (AID 588780)
Active and inactive are the calls of the source.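 How the source made its calls: active means compounds whose fitted half-maximal concentration in the cell-protection dose series is at or below a set limit; inactive means the rest.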
Labels: y = active, n = inactive

compound	discrete_label
COc1cc(-c2cc(NC(C)=O)c3ncc(-c4ccc(F)cc4)n3c2)cc(OC)c1OC	n
COc1cccc(-c2cnc3c(NC(C)=O)cc(-c4cc(OC)c(OC)c(OC)c4)cn23)c1	n
COc1cc(NC(=O)c2ccc(-c3cn[nH]c3)c3ccoc23)cc(OC)c1OC	y
Cn1c(=O)c2c(nc(NCc3ccc4c(c3)OCO4)n2C)n(C)c1=O	n
CC(OC(=O)CCc1nc2ccccc2c(=O)[nH]1)C(=O)NCc1ccc2c(c1)OCO2 (stereo not given)	n

----------
system: H9c2 cardiomyocytes, 2-deoxyglucose stress, ATP luminescence, 2 h; experiment: H9c2 cell survival under 2-deoxyglucose stress – uHTS hits, dose response (AID 588780)
Activity calls are given as the source filed them.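 Rule for the calls: active = compounds whose fitted half-maximal concentration in the cell-protection dose series is at or below a set limit; inactive = the rest.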
Labels: active, inactive

structure_notation	study_target	discrete_label
NC(=O)c1ccccc1OCC(=O)NC12CC3CC(CC(C3)C1)C2	H9c2 cardiomyocytes, 2-deoxyglucose stress, ATP luminescence, 2 h	inactive
COc1ccc(C=NNc2nc3c([nH]2)c(=O)n(C)c(=O)n3C)cc1	H9c2 cardiomyocytes, 2-deoxyglucose stress, ATP luminescence, 2 h	inactive
COc1cc(C(=O)Nc2nc(-c3cccs3)cs2)cc(OC)c1OC	H9c2 cardiomyocytes, 2-deoxyglucose stress, ATP luminescence, 2 h	active
CC(C)N1C(=O)S/C(=C/c2ccc3c(c2)n(C)c(=O)n3C)C1=O	H9c2 cardiomyocytes, 2-deoxyglucose stress, ATP luminescence, 2 h	inactive
Cc1ccc(-c2nnc(NCc3nc4ccccc4[nH]3)c3ccccc23)cc1S(=O)(=O)N1CCOCC1	H9c2 cardiomyocytes, 2-deoxyglucose stress, ATP luminescence, 2 h	inactive
